# Test system: CCRF-CEM
# EXPERIMENT: Growth inhibition of human CCRF-CEM cells assessed as cell growth at 100 uM incubated for 48 hrs by sulforhodamine B assay relative to control
# Assay type: functional
# ASSAY_CONTEXT: read-out: Activity
QUANTITY_KIND: growth at 100 µM (%)
Give bare numbers, in %.

Worked cases, answers included:
[[record]]
smiles_repr = "COc1cc(Cl)cc(-c2nn(-c3cccc(NC(=O)Nc4cccc(C(F)(F)F)c4)c3)cc2-c2ccncc2)c1"
test_target = "CCRF-CEM"
unit_string = "%"
reported = -18

[[record]]
smiles_repr = "COc1cc(Cl)cc(-c2nn(-c3cccc(NC(=O)Nc4cc(C(F)(F)F)cc(C(F)(F)F)c4)c3)cc2-c2ccncc2)c1"
test_target = "CCRF-CEM"
unit_string = "%"
reported = -29


Answer for every listed entry: what is its growth at 100 µM? The entries follow.
1. COc1cc(Cl)cc(-c2nn(-c3cccc(NC(=O)c4ccc(N5CCOCC5)c(C(F)(F)F)c4)c3)cc2-c2ccncc2)c1
2. O=C(Nc1cccc(-n2cc(-c3ccncc3)c(-c3cc(O)cc(Cl)c3)n2)c1)c1ccc(N2CCOCC2)c(C(F)(F)F)c1
3. O=C(Nc1cccc(-n2cc(-c3ccncc3)c(-c3cc(O)cc(Cl)c3)n2)c1)Nc1ccc(Cl)c(C(F)(F)F)c1

Completion:
1. 18
2. 2
3. -3
